assay: Mouse PK, single oral gavage; conditions: mouse, in vivo, po, 0.3 mg/kg, Mouse Cmax, oral gavage, single dose 0.3 mg/kg
Tag: T if measured Cmax is not below 400 nM, F if it is.

Example cases with answers are listed next.
- O=C(O)CC1(CC(=O)N2CCC(NC(=O)Nc3ccc(C(F)(F)F)cc3)CC2)CCCCC1: T
- Cc1ccoc1C(=O)N1CCC(NC(=O)Nc2ccc(OC(F)(F)F)cc2)CC1: F
- O=C(Nc1ccc(C(F)(F)F)cc1)NC1CCN(C(=O)c2ccoc2)CC1: F
- CC(C)C(=O)N1CCC(NC(=O)Nc2ccc(C(F)(F)F)c(F)c2)CC1: T

Qu. API: above_or_equal(metric=Cmax, cutoff=400 nM) for item O=C(Nc1ccc(OC(F)(F)F)cc1)NC1CCN(C(=O)C2=COCC2)CC1
Ans. F

Qu. Given the entry CCC(=O)N1CCC(NC(=O)Nc2ccc(OC(F)(F)F)c(F)c2)CC1 , answer whether its Cmax meets or surpasses 400 nM.
Ans. T

Qu. I'd appreciate it if you could say whether O=C(Nc1ccc(C(F)(F)F)cc1)NC1CCN(C(=O)c2cc[nH]c2)CC1 has Cmax at least equal to 400 nM.
Ans. F

Qu. // inclusive: Cmax at least 400 nM? input: O=C(Nc1ccc(OC(F)(F)F)c(F)c1)NC1CCN(C(=O)C2CC2)CC1
Ans. F

Qu. Exam item: decide whether the reported Cmax for O=C(Nc1ccc(OC(F)(F)F)cc1)NC1CCN(C(=O)C2CCOCC2)CC1 is at least 400 nM.
Ans. T

Qu. Decide: is the reported value of Cmax for O=C(Nc1ccc(OC(F)(F)F)cc1)NC1CCN(C(=O)C2CCCOC2)CC1 (stereo not drawn) equal to or greater than 400 nM?
Ans. F

Qu. Reported Cmax at or above 400 nM? O=C(Nc1ccc(OC(F)(F)F)cc1)NC1CCN(C(=O)c2ccoc2)CC1
Ans. F

Qu. Please indicate if the recorded Cmax for O=C(Nc1ccc(OC(F)(F)F)c(F)c1)NC1CCN(C(=O)C2CCCOC2)CC1 (stereo not drawn) meets or exceeds 400 nM.
Ans. T

Qu. Identify whether the reported Cmax of the following compound is 400 nM or greater: O=C(Nc1ccc(C(F)(F)F)cc1)NC1CCN(C(=O)C2CCOCC2)CC1
Ans. F

Qu. Decide: Cmax of O=C(Nc1ccc(OC(F)(F)F)cc1)NC1CCN(C(=O)[C@@H]2CCOC2)CC1 >= 400 nM?
Ans. F

Qu. API: above_or_equal(metric=Cmax, cutoff=400 nM) for item O=C(Nc1ccc(OC(F)(F)F)cc1)NC1CCN(C(=O)C2CCOC2)CC1 (stereo not drawn)
Ans. T

Qu. API: above_or_equal(metric=Cmax, cutoff=400 nM) for item O=C(Nc1ccc(C(F)(F)F)cc1)NC1CCN(C(=O)[C@@H]2CCOC2)CC1
Ans. F

Qu. Is the recorded value of Cmax equal to or greater than 400 nM for this compound? CC(C)C(=O)N1CCC(NC(=O)Nc2ccc(OC(F)(F)F)c(F)c2)CC1
Ans. F

Qu. Identify whether the reported Cmax of the following compound is 400 nM or greater: O=C(Nc1ccc(C(F)(F)F)cc1)NC1CCN(C(=O)C2CCOC2)CC1 (stereo not drawn)
Ans. F

Qu. Item O=C(Nc1ccc(C(F)(F)F)cc1)NC1CCN(C(=O)C2=COCC2)CC1 with Cmax of 400 nM or above?
Ans. F

Qu. I'd appreciate it if you could say whether CC[C@H](C)C(=O)N1CCC(NC(=O)Nc2ccc(OC(F)(F)F)c(F)c2)CC1 [drawing 88] has Cmax at least equal to 400 nM.
Ans. T

Qu. Reported Cmax reaches at least 400 nM for O=C(Nc1ccc(C(F)(F)F)cc1)NC1CCN(C(=O)C2(C(F)(F)F)CC2)CC1 ?
Ans. T

Qu. Could you please find out whether O=C(Nc1ccc(C(F)(F)F)cc1)NC1CCN(C(=O)C2CCCOC2)CC1 (stereo not drawn) has Cmax that meets 400 nM or exceeds it?
Ans. F

Qu. Check if Cmax >= 400 nM (inclusive). Item: O=C(Nc1ccc(OC(F)(F)F)c(F)c1)NC1CCN(C(=O)[C@@H]2CCOC2)CC1
Ans. T

---

assay: Rat PK, single oral gavage; format: in vivo; details: rat, in vivo, single dose 0.1 mg/kg, PEG 300
Known log10 AUC of a selection of compounds
Please be aware that the numbers have been log10-transformed from AUC in nM·h.

Observe how each entry below is paired with its result.
* O=C(Nc1ccc(C(F)(F)F)c(F)c1)NC1CCN(C(=O)C2CCOCC2)CC1 | 3.22
* O=C(Nc1ccc(C(F)(F)F)cc1)NC1CCN(C(=O)C2CCOCC2)CC1 | 2.59
* O=C(Nc1ccc(OC(F)(F)F)c(F)c1)NC1CCN(C(=O)C2CCCOC2)CC1 (stereo not shown) | 2.52
* O=C(Nc1ccc(OC(F)(F)F)c(F)c1)NC1CCN(C(=O)[C@@H]2CCOC2)CC1 | 2.94
* CCC(=O)N1CCC(NC(=O)Nc2ccc(OC(F)(F)F)cc2)CC1 [drawing 62] | 3.03
* CC(C)C(=O)N1CCC(CC(=O)Nc2ccc(OC(F)(F)F)c(F)c2)CC1 | 1.82
* O=C(Nc1ccc(OC(F)(F)F)c(F)c1)NC1CCN(C(=O)N2CCOCC2)CC1 | 2.51
* CC[C@H](C)C(=O)N1CCC(CC(=O)Nc2ccc(OC(F)(F)F)c(F)c2)CC1 | 1.20

Value of measured log10 AUC for the entry O=C(Nc1ccc(C(F)(F)F)cc1)NC1CCN(C(=O)c2ccoc2)CC1 : 3.55

// sample CC(C)C(=O)N1CCC(NC(=O)Nc2ccc(C(F)(F)F)c(F)c2)CC1 , its log10 AUC was 2.33

---

test: Experimental LogP; type: physicochemical; details: read-out: Exp. LogP
observation-type: logP

logP measured on CC[C@H](C)C(=O)N1CCC(CC(=O)Nc2ccc(OC(F)(F)F)cc2F)CC1 = 6

---

assay: Rat PK, single oral gavage; type: in vivo; conditions: rat, in vivo, single dose 0.1 mg/kg
# note: boundary value 3 h maps to FALSE; Tmax below it maps to TRUE

* O=C(Nc1ccc(OC(F)(F)F)cc1)NC1CCN(C(=O)C2CCOCC2)CC1 | FALSE
* O=C(Nc1ccc(C(F)(F)F)c(F)c1)NC1CCN(C(=O)C2CCOCC2)CC1 | FALSE
* O=C(Nc1ccc(OC(F)(F)F)c(F)c1)NC1CCN(C(=O)[C@@H]2CCOC2)CC1 | TRUE
* Cc1occc1C(=O)N1CCC(NC(=O)Nc2ccc(OC(F)(F)F)cc2)CC1 | TRUE

Consider now this further molecule.
Qu. Does the reported Tmax of the following molecule sit strictly below 3 h? CC(C)C(=O)N1CCC(NC(=O)Nc2ccc(C(F)(F)F)c(F)c2)CC1
Ans. TRUE

---

test: Rat PK, single oral gavage; type: in vivo; details: rat, in vivo, single dose 0.1 mg/kg, read-out: Rat T1/2 (converted)
Given measured half-life, output 1.0 if it is greater than or equal to 3 h and 0.0 if not.

* CC(C)C(=O)N1CCC(NC(=O)Nc2ccc(OC(F)(F)F)c(F)c2)CC1 | 0.0
* O=C(Nc1ccc(C(F)(F)F)c(F)c1)NC1CCN(C(=O)C2CCOCC2)CC1 | 1.0
* O=C(Nc1ccc(OC(F)(F)F)c(F)c1)NC1CCN(C(=O)C2CCCOC2)CC1 (stereo not drawn) | 1.0
* CCOC(=O)N1CCC(NC(=O)Nc2ccc(OC(F)(F)F)c(F)c2)CC1 | 1.0
* CC[C@H](C)C(=O)N1CCC(NC(=O)Nc2ccc(OC(F)(F)F)c(Cl)c2)CC1 | 0.0

Qu. Answer whether half-life of CC[C@H](C)C(=O)N1CCC(CC(=O)Nc2ccc(OC(F)(F)F)c(F)c2)CC1 is greater than or equal to 3 h.
Ans. 0.0

Qu. Form field: half-life at least 3 h? Entry: O=C(Nc1ccc(C(F)(F)F)cc1)NC1CCN(C(=O)c2ccoc2)CC1
Ans. 1.0

---

test: Rat PK, single oral gavage; type: in vivo; conditions: rat, in vivo, single dose 0.1 mg/kg
Each entry below carries its recorded Tmax.
Just the number please, in h, no unit attached.

Examples with their reported Tmax follow.
* CC(C)C(=O)N1CCC(NC(=O)Nc2ccc(OC(F)(F)F)c(F)c2)CC1 | 2.8
* O=C(Nc1ccc(OC(F)(F)F)c(F)c1)NC1CCN(C(=O)C2CCOCC2)CC1 | 3.1
* O=C(Nc1ccc(OC(F)(F)F)c(F)c1)NC1CCN(C(=O)C2CCCOC2)CC1 (centres unmarked) | 2.6
* CC[C@H](C)C(=O)N1CCC(NC(=O)Nc2ccc(OC(F)(F)F)c(OC(F)(F)F)c2)CC1 | 2.5

Now for the compound whose Tmax we want.
Reported Tmax for CC[C@H](C)C(=O)N1CCC(CC(=O)Nc2ccc(OC(F)(F)F)c(F)c2)CC1 was 1.4
